Target: recombinant N-terminal GST-tagged human Rho kinase 1 (ROCK1, amino acids 1-535) (Homo sapiens, UniProt Q13464)
Construct: ROCK1, amino acids 1-535; purchased Invitrogen Inc. PV-3691
Sequence (Q13464 1-535): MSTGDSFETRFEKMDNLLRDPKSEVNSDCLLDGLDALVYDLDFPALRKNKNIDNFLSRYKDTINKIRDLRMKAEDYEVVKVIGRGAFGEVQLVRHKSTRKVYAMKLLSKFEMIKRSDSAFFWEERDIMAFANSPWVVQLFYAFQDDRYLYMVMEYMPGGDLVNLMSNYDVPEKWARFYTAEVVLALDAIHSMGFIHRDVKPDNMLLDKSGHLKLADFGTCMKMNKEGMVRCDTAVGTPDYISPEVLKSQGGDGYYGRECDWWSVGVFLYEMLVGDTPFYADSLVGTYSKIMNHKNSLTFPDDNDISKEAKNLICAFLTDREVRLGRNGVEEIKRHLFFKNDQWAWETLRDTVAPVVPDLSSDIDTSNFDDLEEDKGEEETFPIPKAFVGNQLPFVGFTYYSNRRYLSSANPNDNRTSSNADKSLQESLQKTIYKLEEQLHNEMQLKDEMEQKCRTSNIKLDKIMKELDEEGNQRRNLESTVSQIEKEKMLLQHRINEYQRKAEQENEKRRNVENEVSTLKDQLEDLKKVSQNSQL
Assay: In vitro Rho kinase assay (luciferase-based ATP consumption), ROCK1
Format: biochemical
Conditions: recombinant GST-tagged human ROCK1, luciferase-based ATP consumption; read-out: ROCK1 IC50
pIC50: −log10 of the molar value.
reported_endpoint: pIC50

1. COc1cc(C=CC(=O)NCc2ccc3sc(-c4ccnc(N)n4)c(C)c3c2)ccc1O [Example 255]	> 5.30
2. Cc1c(-c2ccnc(N)n2)sc2ccc(CNC(=O)C(C)NC(=O)OC(C)(C)C)cc12 (stereo not shown) [Example 241]	> 5.30
3. Cc1c(-c2ccnc(N)n2)sc2cnccc12 [Example 18]	> 5.30
4. Cc1c(-c2ccnc(N)n2)sc2ccc(Nc3cccc(OCc4ccccc4)c3)cc12 [Example 55]	> 5.30

// lookup pIC50 for Cc1c(-c2ccnc(N)n2)sc2ccc(CNC(=O)C(Cc3ccccc3)NC(=O)OC(C)(C)C)cc12 (stereo not shown) [Example 325]
> 5.30

# query: pIC50 of entry CCCc1ccc(C(=O)NCc2ccc3sc(-c4ccnc(N)n4)c(C)c3c2)cc1 [Example 171]
< 5.30

Quick one: pIC50 of Cc1c(-c2ccnc(N)n2)sc2ccc(CNC(=O)c3ccc(F)c([N+](=O)[O-])c3)cc12 [Example 231] ?
> 5.30

Query: pIC50; subject: Cc1c(-c2ccnc(N)n2)sc2ccc(CNC(=O)c3cc([N+](=O)[O-])ccc3O)cc12 [Example 228]
< 5.30

So what's the measured pIC50 for this one? COc1ccc([N+](=O)[O-])c(C(=O)NCc2ccc3sc(-c4ccnc(N)n4)c(C)c3c2)c1 [Example 259]
> 5.30
